TARGET_DESC: glutathione S-transferase (GST)-fusion human ERK2 protein (Homo sapiens, UniProt P28482)
Construct: purchased Carna Biosciences, Inc; host or cells: E. coli expression system
Sequence (P28482 whole entry, the tested form may be a part): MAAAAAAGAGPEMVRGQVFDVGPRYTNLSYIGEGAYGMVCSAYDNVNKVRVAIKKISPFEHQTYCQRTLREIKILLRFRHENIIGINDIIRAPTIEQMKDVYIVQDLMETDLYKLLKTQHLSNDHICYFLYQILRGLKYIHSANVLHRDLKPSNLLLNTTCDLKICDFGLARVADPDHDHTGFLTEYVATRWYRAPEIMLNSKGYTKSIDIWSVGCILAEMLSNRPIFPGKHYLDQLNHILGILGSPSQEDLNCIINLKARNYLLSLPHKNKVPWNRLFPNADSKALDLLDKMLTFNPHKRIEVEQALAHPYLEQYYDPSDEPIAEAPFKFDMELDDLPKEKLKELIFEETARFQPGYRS
EXPERIMENT_DESCRIPTION: ERK2 enzyme assay (LabChip mobility shift)
Assay type: biochemical
MEASUREMENT_CONDITIONS: IC50 class; 2 nM ERK2, 4.25 μM FL-Peptide 8, 43 μM ATP; read-out: ERK2 Inhibitory Activity
pIC50: −log10 of the molar value.
PROPERTY_LABEL: pIC50

{"columns": ["COMPOUND", "PROPERTY_LABEL", "REPORTED"],
 "data": [
  ["O=C(Nc1ccc2ncc(Oc3cnccn3)cc2n1)NC1CCCC1", "pIC50", "5.00 to 6.00"],
  ["O=C(Nc1ccc2ncc(C(=O)N3CCOCC3)cc2n1)NC1CCCC1", "pIC50", "< 5.00"],
  ["COc1cc(-c2cnc3ccc(NC(=O)NC4CCCC4)nc3c2)ccn1", "pIC50", "> 7.00"],
  ["CN1CCN(CCCn2cc(-c3cnc4ccc(NC(=O)NC5CCCC5)nc4c3)cn2)CC1", "pIC50", "> 7.00"],
  ["O=C(Nc1ccc2ncc(-c3cn[nH]c3)cc2n1)NC1CCC(Oc2ccccc2)C1 (centres unmarked)", "pIC50", "> 7.00"],
  ["COc1cccc(CCCCNC(=O)Nc2ccc3ncc(-c4cn[nH]c4)cc3n2)c1", "pIC50", "> 7.00"],
  ["CS(=O)(=O)Nc1cccc(-c2cnc3ccc(NC(=O)NC4CCCC4)nc3c2)c1", "pIC50", "> 7.00"],
  ["O=C(Nc1ccc2ncc(-c3cnn(CCCN4CC[C@@H](F)C4)c3)cc2n1)NC1CCCC1", "pIC50", "> 7.00"],
  ["CC(C)(C)OC(=O)N1CC[C@H](NC(=O)Nc2ccc3ncc(-c4cn[nH]c4)cc3n2)C1", "pIC50", "6.00 to 7.00"],
  ["CCCC(C)(C)NC(=O)Nc1ccc2ncc(-c3cnn(CCCN4CCOCC4)c3)cc2n1", "pIC50", "> 7.00"],
  ["O=C(Nc1ccc2ncc(-c3ccccc3CO)cc2n1)NC1CCCC1", "pIC50", "6.00 to 7.00"],
  ["O=C(NC[C@H]1CCCO1)Nc1ccc2ncc(-c3cn[nH]c3)cc2n1", "pIC50", "> 7.00"],
  ["O=C(Nc1ccc2ncc(-c3ccsc3)cc2n1)NC1CCCC1", "pIC50", "> 7.00"],
  ["Cc1n[nH]c(C)c1-c1cnc2ccc(NC(=O)NC3CCCC3)nc2c1", "pIC50", "> 7.00"],
  ["CC(C)(C)OC(=O)n1cc(-c2cnc3ccc(NC(=O)NC4CCCc5ccccc54)nc3c2)cn1 (centres unmarked)", "pIC50", "> 7.00"],
  ["CN1CC(n2cc(-c3cnc4ccc(NC(=O)NC5CCCC5)nc4c3)cn2)C1", "pIC50", "6.00 to 7.00"],
  ["O=C(Nc1ccc2ncc(N3CC(O)C3)cc2n1)NC1CCCC1", "pIC50", "> 7.00"]
]}

###

Collected pIC50 values appear next to each entry.
TARGET_DESC: human PI3Kα protein (Homo sapiens, UniProt P42336)
Construct: purchased Carna Biosciences, Inc; host or cells: Baculovirus expression system
Sequence (P42336 whole entry): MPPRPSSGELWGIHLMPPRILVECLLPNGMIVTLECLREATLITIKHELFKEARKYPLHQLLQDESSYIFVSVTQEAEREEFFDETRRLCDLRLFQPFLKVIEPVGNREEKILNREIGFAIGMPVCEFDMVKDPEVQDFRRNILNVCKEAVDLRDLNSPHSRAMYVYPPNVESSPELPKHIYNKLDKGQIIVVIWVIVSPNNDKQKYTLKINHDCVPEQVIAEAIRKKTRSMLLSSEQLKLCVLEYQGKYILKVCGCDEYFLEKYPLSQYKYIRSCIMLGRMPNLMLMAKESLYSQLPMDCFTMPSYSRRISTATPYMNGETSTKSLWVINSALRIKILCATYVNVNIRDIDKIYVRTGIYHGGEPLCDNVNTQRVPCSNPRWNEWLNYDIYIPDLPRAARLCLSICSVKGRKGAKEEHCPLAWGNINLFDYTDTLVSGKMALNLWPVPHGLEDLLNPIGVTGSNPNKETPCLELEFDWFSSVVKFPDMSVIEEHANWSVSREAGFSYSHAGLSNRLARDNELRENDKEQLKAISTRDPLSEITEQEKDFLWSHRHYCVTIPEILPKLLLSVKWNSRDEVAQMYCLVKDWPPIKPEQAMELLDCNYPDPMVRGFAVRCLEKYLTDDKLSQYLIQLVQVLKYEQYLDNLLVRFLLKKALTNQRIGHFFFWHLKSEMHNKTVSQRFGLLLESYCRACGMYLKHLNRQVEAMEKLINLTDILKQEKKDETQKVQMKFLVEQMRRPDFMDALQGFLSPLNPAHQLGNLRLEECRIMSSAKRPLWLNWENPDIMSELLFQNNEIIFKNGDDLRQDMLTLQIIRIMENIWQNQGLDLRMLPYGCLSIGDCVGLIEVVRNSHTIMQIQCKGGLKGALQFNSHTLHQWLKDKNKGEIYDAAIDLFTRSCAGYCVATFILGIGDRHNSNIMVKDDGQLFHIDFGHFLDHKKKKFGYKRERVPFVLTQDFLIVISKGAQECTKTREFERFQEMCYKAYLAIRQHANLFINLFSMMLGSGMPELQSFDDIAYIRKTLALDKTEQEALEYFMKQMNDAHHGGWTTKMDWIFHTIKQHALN
Sequence (P27986 whole entry partner): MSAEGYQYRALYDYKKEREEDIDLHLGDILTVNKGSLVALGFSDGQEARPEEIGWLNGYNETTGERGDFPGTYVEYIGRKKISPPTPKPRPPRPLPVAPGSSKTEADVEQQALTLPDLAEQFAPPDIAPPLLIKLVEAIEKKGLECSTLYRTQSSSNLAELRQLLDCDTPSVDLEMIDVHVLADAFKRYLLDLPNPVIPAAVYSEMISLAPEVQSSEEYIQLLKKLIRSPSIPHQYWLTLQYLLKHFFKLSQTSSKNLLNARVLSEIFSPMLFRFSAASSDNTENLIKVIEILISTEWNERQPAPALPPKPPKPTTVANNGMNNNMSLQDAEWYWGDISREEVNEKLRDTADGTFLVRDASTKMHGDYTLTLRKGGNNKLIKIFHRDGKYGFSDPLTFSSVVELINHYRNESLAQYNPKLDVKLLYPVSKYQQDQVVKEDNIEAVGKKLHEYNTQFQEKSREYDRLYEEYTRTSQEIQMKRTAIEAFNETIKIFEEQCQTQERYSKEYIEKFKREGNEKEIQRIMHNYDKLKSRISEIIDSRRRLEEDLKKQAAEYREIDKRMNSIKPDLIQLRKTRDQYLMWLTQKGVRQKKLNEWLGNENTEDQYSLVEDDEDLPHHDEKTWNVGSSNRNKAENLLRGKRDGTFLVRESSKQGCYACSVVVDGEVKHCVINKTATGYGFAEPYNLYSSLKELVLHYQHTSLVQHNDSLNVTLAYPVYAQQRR
EXPERIMENT_DESCRIPTION: PI3Kα enzyme assay (ADP-Glo kinase assay)
Format: biochemical
MEASUREMENT_CONDITIONS: IC50 class; 3 nM PI3Kα, 50 μM PIP2, 100 μM ATP; read-out: PI3Kα Inhibitory Activity
pIC50: −log10 of the molar value.
PROPERTY_LABEL: pIC50

{"columns": ["COMPOUND", "TARGET_DESC", "REPORTED"],
 "data": [
  ["O=C(Nc1ccc2ncc(-c3cnc4ccccc4c3)cc2n1)NC1CCCC1", "human PI3Kα protein (Homo sapiens, UniProt P42336)", "5.00 to 6.00"],
  ["O=C(Nc1ccc2ncc(Oc3cnccn3)cc2n1)NC1CCCC1", "human PI3Kα protein (Homo sapiens, UniProt P42336)", "6.00 to 7.00"],
  ["CN1CCC(NC(=O)Nc2ccc3ncc(-c4cn[nH]c4)cc3n2)CC1", "human PI3Kα protein (Homo sapiens, UniProt P42336)", "5.00 to 6.00"],
  ["CCOC(=O)c1nn(C)cc1-c1cnc2ccc(NC(=O)NC3CCCC3)nc2c1", "human PI3Kα protein (Homo sapiens, UniProt P42336)", "> 7.00"],
  ["COc1ccc(Nc2cnc3ccc(NC(=O)NC4CCCC4)nc3c2)cc1", "human PI3Kα protein (Homo sapiens, UniProt P42336)", "> 7.00"],
  ["COc1cccc(CCCCNC(=O)Nc2ccc3ncc(-c4cn[nH]c4)cc3n2)c1", "human PI3Kα protein (Homo sapiens, UniProt P42336)", "6.00 to 7.00"],
  ["O=C(NCC12CC3CC(CC(C3)C1)C2)Nc1ccc2ncc(-c3cn[nH]c3)cc2n1", "human PI3Kα protein (Homo sapiens, UniProt P42336)", "5.00 to 6.00"],
  ["O=C(Nc1ccc2ncc(-c3cccc(O)c3)cc2n1)NC1CCCC1", "human PI3Kα protein (Homo sapiens, UniProt P42336)", "6.00 to 7.00"],
  ["CN1CCC(n2cc(-c3cnc4ccc(NC(=O)NC5(C)CCCC5)nc4c3)cn2)CC1", "human PI3Kα protein (Homo sapiens, UniProt P42336)", "> 7.00"],
  ["O=C(Nc1ccc2ncc(-c3ccc4[nH]ncc4c3)cc2n1)NC1CCCC1", "human PI3Kα protein (Homo sapiens, UniProt P42336)", "> 7.00"],
  ["O=C(NCCC(F)(F)F)Nc1ccc2ncc(-c3cn[nH]c3)cc2n1", "human PI3Kα protein (Homo sapiens, UniProt P42336)", "> 7.00"],
  ["O=C(Nc1ccc2ncc(NC(=O)c3ccccc3)cc2n1)NC1CCCC1", "human PI3Kα protein (Homo sapiens, UniProt P42336)", "> 7.00"],
  ["O=C(Nc1ccc2ncc(N3CCOCC3)cc2n1)NC1CCCC1", "human PI3Kα protein (Homo sapiens, UniProt P42336)", "> 7.00"],
  ["CN1CCN(CCCn2cc(-c3cnc4ccc(NC(=O)NC5(C)CCCC5)nc4c3)cn2)CC1", "human PI3Kα protein (Homo sapiens, UniProt P42336)", "> 7.00"],
  ["CC(C)[C@H](C)NC(=O)Nc1ccc2ncc(-c3cn[nH]c3)cc2n1", "human PI3Kα protein (Homo sapiens, UniProt P42336)", "> 7.00"],
  ["O=C(NCc1ccccn1)Nc1ccc2ncc(-c3cn[nH]c3)cc2n1", "human PI3Kα protein (Homo sapiens, UniProt P42336)", "5.00 to 6.00"],
  ["O=C(NCC1C[C@@H]2CC[C@H]1C2)Nc1ccc2ncc(-c3cnn(CCN4CCNCC4)c3)cc2n1 (stereo partly drawn)", "human PI3Kα protein (Homo sapiens, UniProt P42336)", "6.00 to 7.00"],
  ["O=C(Nc1ccc2ncc(CN3CCOCC3)cc2n1)NC1CCCC1", "human PI3Kα protein (Homo sapiens, UniProt P42336)", "5.00 to 6.00"],
  ["CCN1CCN(CCCn2cc(-c3cnc4ccc(NC(=O)NC5CCCC5)nc4c3)cn2)CC1", "human PI3Kα protein (Homo sapiens, UniProt P42336)", "> 7.00"],
  ["O=C(Nc1ccc2ncc(-c3cnn(CCN4CCC4)c3)cc2n1)NC1CCCC1", "human PI3Kα protein (Homo sapiens, UniProt P42336)", "> 7.00"],
  ["CN1CC(n2cc(-c3cnc4ccc(NC(=O)NC5CCCC5)nc4c3)cn2)C1", "human PI3Kα protein (Homo sapiens, UniProt P42336)", "> 7.00"],
  ["COCC1(NC(=O)Nc2ccc3ncc(-c4cn[nH]c4)cc3n2)CCC1", "human PI3Kα protein (Homo sapiens, UniProt P42336)", "6.00 to 7.00"],
  ["O=C(NCCCCN1CCCC1)Nc1ccc2ncc(-c3cn[nH]c3)cc2n1", "human PI3Kα protein (Homo sapiens, UniProt P42336)", "< 5.00"],
  ["CC(=O)OCCCCn1cc(-c2cnc3ccc(NC(=O)NC4CCCC4)nc3c2)cn1", "human PI3Kα protein (Homo sapiens, UniProt P42336)", "> 7.00"],
  ["O=C(Nc1ccc2ncc(-c3cnn(CCCN4CC[C@@H](F)C4)c3)cc2n1)NC1CCCC1", "human PI3Kα protein (Homo sapiens, UniProt P42336)", "> 7.00"],
  ["CC1CN(c2cnc3ccc(NC(=O)NC4CCCC4)nc3c2)CCO1 (stereo not drawn)", "human PI3Kα protein (Homo sapiens, UniProt P42336)", "> 7.00"],
  ["O=C(Nc1ccc2ncc(-c3cnn(C4CCNCC4)c3)cc2n1)NC1CCCC1", "human PI3Kα protein (Homo sapiens, UniProt P42336)", "> 7.00"],
  ["O=C(NC[C@H]1CCCO1)Nc1ccc2ncc(-c3cn[nH]c3)cc2n1", "human PI3Kα protein (Homo sapiens, UniProt P42336)", "6.00 to 7.00"],
  ["O=C(Nc1ccc2ncc(-c3ccccc3CO)cc2n1)NC1CCCC1", "human PI3Kα protein (Homo sapiens, UniProt P42336)", "5.00 to 6.00"],
  ["O=C(Nc1ccc2ncc(-c3cnn(CCN4CC5(COC5)C4)c3)cc2n1)NC1CCCC1", "human PI3Kα protein (Homo sapiens, UniProt P42336)", "> 7.00"],
  ["CC(C)NC(=O)Nc1ccc2ncc(-c3cn[nH]c3)cc2n1", "human PI3Kα protein (Homo sapiens, UniProt P42336)", "> 7.00"],
  ["CN1CCN(CCCn2cc(-c3cnc4ccc(NC(=O)NC5CCCC5)nc4c3)cn2)CC1", "human PI3Kα protein (Homo sapiens, UniProt P42336)", "> 7.00"],
  ["COc1cc(-c2cnc3ccc(NC(=O)NC4CCCC4)nc3c2)ccn1", "human PI3Kα protein (Homo sapiens, UniProt P42336)", "> 7.00"],
  ["C#Cc1cnc2ccc(NC(=O)NC3CCCC3)nc2c1", "human PI3Kα protein (Homo sapiens, UniProt P42336)", "6.00 to 7.00"],
  ["O=C(NCCCCc1ccccc1F)Nc1ccc2ncc(-c3cn[nH]c3)cc2n1", "human PI3Kα protein (Homo sapiens, UniProt P42336)", "> 7.00"],
  ["CN(C)CCCn1cc(-c2cnc3ccc(NC(=S)NC4CCCC4)nc3c2)cn1", "human PI3Kα protein (Homo sapiens, UniProt P42336)", "> 7.00"]
]}

Measured values drawn from patent US8841456B2 for this set.
